Test system: 186277-243-T-J2-PDC complex spheroid viability;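 further: spheroids exposed to compounds for seven days; 100% = DMSO vehicle control viability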
Assay: Anticancer human tumor 186277-243-T-J2-PDC patient-derived colon adenocarcinoma cell line growth inhibition [POLQ]
Conditions: second compound 0.1 µM; first compound 1 µM; active compounds read low
This section presents molecules with their documented viability, T/C values.

{"columns": ["molecule", "unit text", "viability, T/C"],
 "data": [
  ["CC(C)n1c(=O)n(C)c2cnc3cc(F)c(-c4ccc(OCCCN5CCCCC5)nc4)cc3c21 + COC1C(OC(N)=O)C(O)C(Oc2ccc3c(O)c(NC(=O)c4ccc(O)c(CC=C(C)C)c4)c(=O)oc3c2C)OC1(C)C", "%", 101],
  ["C=CCn1c(=O)c2cnc(Nc3ccc(N4CCN(C)CC4)cc3)nc2n1-c1cccc(C(C)(C)O)n1 + COC1C(OC(N)=O)C(O)C(Oc2ccc3c(O)c(NC(=O)c4ccc(O)c(CC=C(C)C)c4)c(=O)oc3c2C)OC1(C)C", "%", 7.76],
  ["C=CCn1c(=O)c2cnc(Nc3ccc(N4CCN(C)CC4)cc3)nc2n1-c1cccc(C(C)(C)O)n1 + Cc1cccc(N(C)C(=O)C2C(O)CCN2c2nc(C)cc(C(F)(F)F)c2C#N)c1", "%", 13.7],
  ["Nc1ccn(C2OC(CO)C(O)C2(F)F)c(=O)n1 (stereo not given) + COC1C(OC(N)=O)C(O)C(Oc2ccc3c(O)c(NC(=O)c4ccc(O)c(CC=C(C)C)c4)c(=O)oc3c2C)OC1(C)C", "%", 6.16],
  ["CCc1cc2c(N3CCc4c(cc(Cn5ccnc5)cc4-c4cn(C)nc4C(F)(F)F)C3=O)cc(C)nc2c(OC)n1 + Nc1ccc(C#CCN(C(=O)Cc2ncc(C(F)(F)F)cc2C(F)(F)F)c2ccc(F)cc2)nn1", "%", 108],
  ["CC1COCCN1c1cc(-c2ccnn2C)c2ccnc(-c3ccn[nH]3)c2n1 (stereo not given) + COC1C(OC(N)=O)C(O)C(Oc2ccc3c(O)c(NC(=O)c4ccc(O)c(CC=C(C)C)c4)c(=O)oc3c2C)OC1(C)C", "%", 3.51],
  ["CC(C)n1c(=O)n(C)c2cnc3cc(F)c(-c4ccc(OCCCN5CCCCC5)nc4)cc3c21 + Nc1ccc(C#CCN(C(=O)Cc2ncc(C(F)(F)F)cc2C(F)(F)F)c2ccc(F)cc2)nn1", "%", 102],
  ["O=C(Nc1ccc(O)c(NS(=O)(=O)c2ccc(F)cc2)c1)c1ccc(-c2ccccc2)cc1 + Nc1ccc(C#CCN(C(=O)Cc2ncc(C(F)(F)F)cc2C(F)(F)F)c2ccc(F)cc2)nn1", "%", 86.5],
  ["COc1cccc2c1C(=O)c1c(O)c3c(c(O)c1C2=O)CC(O)(C(=O)CO)CC3OC1CC(N)C(O)C(C)O1 (stereo not given) + Cc1cccc(N(C)C(=O)C2C(O)CCN2c2nc(C)cc(C(F)(F)F)c2C#N)c1", "%", 0.24],
  ["CNCc1ccc(-c2[nH]c3cc(F)cc4c3c2CCNC4=O)cc1 + Cc1cccc(N(C)C(=O)C2C(O)CCN2c2nc(C)cc(C(F)(F)F)c2C#N)c1", "%", 108]
]}
